target: cloned human dopamine D3 receptors (Homo sapiens, UniProt P35462); construct: expressed in transfected cells; membrane homogenate; assay: [N-Methyl-3H]Spiroperidol binding to cloned human dopamine D3 receptors (Protocol 1); conditions: read-out: D3K1
Sequence (P35462 whole entry): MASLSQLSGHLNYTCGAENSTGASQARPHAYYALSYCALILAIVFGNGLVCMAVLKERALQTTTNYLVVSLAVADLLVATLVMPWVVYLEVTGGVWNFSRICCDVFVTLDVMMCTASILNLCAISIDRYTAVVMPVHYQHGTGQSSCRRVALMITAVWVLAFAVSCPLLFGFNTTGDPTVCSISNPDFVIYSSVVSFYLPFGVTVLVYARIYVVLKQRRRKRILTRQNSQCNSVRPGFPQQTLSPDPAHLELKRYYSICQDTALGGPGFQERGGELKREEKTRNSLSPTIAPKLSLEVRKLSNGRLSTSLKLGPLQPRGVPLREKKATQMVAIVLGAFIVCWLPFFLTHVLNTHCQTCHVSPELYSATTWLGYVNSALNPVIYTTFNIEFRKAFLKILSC
pKi: −log10 of the molar value.
Cut-off 7 on pKi, inclusive. At or above means T; below means F.

Dear colleague, could you confirm whether COc1ccccc1C(=O)NCCCCN1CCN(c2c(Cl)sc3cc(C(F)(F)F)ccc23)CC1 has pKi at or above 7?
T

====

test system: Alpha-1 adrenergic receptors from rat brain cortex; assay: [3H]Prazosin binding to alpha-1 adrenergic receptors from rat brain cortex (Protocol 4); conditions: r = rat; Inh @ 1 μM
Reported values of r-α1 % Inh for individual entries
API: value field is a number in %; no unit string.

- compound structure string: "COc1ccccc1C(=O)NCCCCN1CCCN(c2csc3cc(F)ccc23)CC1"
  readout value: 41

Measured r-α1 % Inh, O=C(NCCCCN1CCCN(c2csc3cc(F)ccc23)CC1)c1ccc(OC(F)(F)F)cc1 : 14

Measured r-α1 % Inh, O=C(NCCCCN1CCCN(c2csc3cc(F)ccc23)CC1)c1cccc(F)c1 : 0

Measured r-α1 % Inh, CC(C)(C)c1ccc(C(=O)NCCCCN2CCCN(c3csc4cc(F)ccc34)CC2)cc1 : 0

Origin of measurements: patent US7550469B2
